# Target desc: T1, TfR protein (Acro Biosystems. Cat. No. CD1-H5243) (UniProt P02786 89-760)
# T1 construct: Bought recombinant protein; also called TfR1; transferrin receptor
# T1 sequence (P02786 89-760 limits assumed): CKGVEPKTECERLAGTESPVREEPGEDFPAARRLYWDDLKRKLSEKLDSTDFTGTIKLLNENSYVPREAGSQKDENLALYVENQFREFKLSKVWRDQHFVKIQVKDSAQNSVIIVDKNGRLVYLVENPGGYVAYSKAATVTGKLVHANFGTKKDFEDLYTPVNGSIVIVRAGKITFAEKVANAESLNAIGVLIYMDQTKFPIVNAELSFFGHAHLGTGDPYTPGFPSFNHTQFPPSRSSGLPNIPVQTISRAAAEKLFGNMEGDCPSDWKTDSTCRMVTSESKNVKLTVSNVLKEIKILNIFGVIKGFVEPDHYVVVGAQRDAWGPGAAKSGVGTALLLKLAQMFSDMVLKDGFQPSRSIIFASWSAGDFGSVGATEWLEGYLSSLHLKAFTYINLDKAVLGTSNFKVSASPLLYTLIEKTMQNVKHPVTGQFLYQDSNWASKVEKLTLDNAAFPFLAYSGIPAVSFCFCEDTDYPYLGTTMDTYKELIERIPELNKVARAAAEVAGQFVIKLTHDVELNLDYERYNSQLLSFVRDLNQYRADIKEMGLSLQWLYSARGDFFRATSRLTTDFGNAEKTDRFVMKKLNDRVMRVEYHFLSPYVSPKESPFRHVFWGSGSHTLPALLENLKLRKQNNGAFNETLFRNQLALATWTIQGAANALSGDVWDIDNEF
# Assay text: FOPPR (fiber optic particle plasmon resonance); peptide coupled to chip, TfR protein loaded at 0.5-1000 ng/mL
# Experimental: In this Example, the binding affinity of the transporter peptides disclosed herein to TfR was analyzed by fiber optic particle plasmon resonance (FOPPR). […] To determine the affinity of the targeting peptide to TfR1, a fiber optic particle plasmon resonance (FOPPR) affinity study was performed according to the manufacturer's instruction. […] Based on the light intensity change, the molecules interaction parameters of KD were calculated by the FOPPR system D200 (Id M3) (Taipei, Taiwan).

Binder	Units symbol	Kd
DISVLDKEYD (10-mer; also called transporter peptide) [PT-025]	nM	0.43
DISVLSKEYD (10-mer; also called transporter peptide) [PT-051]	nM	70
DISVLEKEYD (10-mer; also called transporter peptide) [PT-029]	nM	3.62
DIPVLMKEYD (10-mer; also called transporter peptide) [PT-014]	nM	52.3
NISVLMKEYD (10-mer; also called transporter peptide) [PT-062]	nM	1.3
DISVLKKEYD (10-mer; also called transporter peptide) [PT-028]	nM	5.14
DISLLMKEYD (10-mer; also called transporter peptide) [PT-022]	nM	36.6
DISVLMKHYD (10-mer; also called transporter peptide) [PT-065]	nM	0.57
DISVLMKEFD (10-mer; also called transporter peptide) [PT-055]	nM	6.08
DISVIMKEYD (10-mer; also called transporter peptide) [PT-023]	nM	22.8
DIDVLMKEYD (10-mer; also called transporter peptide) [PT-004]	nM	18.5
DITVLMKEYD (10-mer; also called transporter peptide) [PT-017]	nM	4.77
DISVLLKEYD (10-mer; also called transporter peptide) [PT-064]	nM	10.5
